# TEST_TARGET: KDM4E (Homo sapiens, UniProt B2RXH2)
# Construct: His6 (N); made in house; host or cells: Escherichia coli
# Sequence (B2RXH2 1-337): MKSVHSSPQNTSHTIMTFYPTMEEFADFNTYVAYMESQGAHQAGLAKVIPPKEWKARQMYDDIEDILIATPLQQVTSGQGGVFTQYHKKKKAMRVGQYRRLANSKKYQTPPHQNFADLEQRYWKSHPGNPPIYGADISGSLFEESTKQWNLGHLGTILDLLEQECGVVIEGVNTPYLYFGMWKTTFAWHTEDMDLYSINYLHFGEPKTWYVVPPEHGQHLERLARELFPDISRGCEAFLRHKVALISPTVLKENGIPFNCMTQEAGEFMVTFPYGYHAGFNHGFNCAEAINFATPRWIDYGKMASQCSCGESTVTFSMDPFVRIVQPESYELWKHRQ
# METHOD_NOTES: Formaldehyde dehydrogenase-coupled demethylation assay, KDM4E
# Type: biochemical
# CONDITION_INFO: KDM4E catalytic domain; apparent, preliminary; FDH/NAD+-coupled assay, 37 °C; mean±s.e.m., n=3
Attribute: kcat

| SUBSTANCE | kcat |
| --- | --- |
| A-Rme2a-TKQTARKSTGGKA [H3(1-15)R2me2a, 'natural' histone H3 peptide asymmetrically dimethylated at R2] | 9.9±1.0 × 10^−3 s^−1 |
| ARTKQTAR-Rme2a-STGGKA (ARTKQTARRSTGGKA; asymmetric dimethylarginine at 9; C-terminal amide) [H3(1-15)K9Rme2a, histone H3 fragment with asymmetric dimethylarginine replacing methylated K9] | 4.6±0.7 × 10^−3 s^−1 |
| ARTKQTAR-Rme-STGGKA (ARTKQTARRSTGGKA; monomethylarginine at 9; C-terminal amide) [H3(1-15)K9Rme, histone H3 fragment with monomethylarginine replacing methylated K9] | 2.7±0.2 × 10^−3 s^−1 |
| SG-Rme2a-GKGGKGLGKGGA [H4(1-15)R3me2a, 'natural' histone H4 residues 1-15 peptide asymmetrically dimethylated at R3] | 2.1±0.1 × 10^−3 s^−1 |
| ARTKQTAR-Rme2s-STGGKA (ARTKQTARRSTGGKA; symmetric dimethylarginine at 9; C-terminal amide) [H3(1-15)K9Rme2s, histone H3 fragment with symmetric dimethylarginine replacing methylated K9] | 8.7±0.3 × 10^−3 s^−1 |
